ASSAY COMMENT: recombinant UMI read abundance after kanamycin selection (control-corrected) (log10(CPM+1)); higher = more efficient recombination; extreme values may be limits of the assay; sequences stand for … in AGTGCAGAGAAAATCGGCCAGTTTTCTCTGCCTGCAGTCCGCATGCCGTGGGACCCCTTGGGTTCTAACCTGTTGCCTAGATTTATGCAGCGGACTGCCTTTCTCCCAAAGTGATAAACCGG…AGGTTGGTTTCACT; site = the 11-nt donor;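 also: IS621 bridge recombinase in Escherichia coli cells against a fixed T5 target plasmid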
MEASUREMENT TYPE: recombinant UMI read abundance (log10)
Lab note: record the figure alone, no unit after it.

Output measured recombinant UMI read abundance (log10) for this item: CGAGCTTCATGGACCGGTTTTCCCGGTAATCCGTATTTGCT (site CGATCATCTAG) 0

Return recombinant UMI read abundance (log10) (reported value) for this sequence: ACTCAACCATGGACCGGTTTTCCCGGTAATCCGTATTTGGT (site ACTCAACCTAC) 0.00884

Please report the measured recombinant UMI read abundance (log10) for GCGCCTACATGGACCGGTTTTCCCGGTAATCCGTATTTGTT (site GCGCCTACTAA) 0.013

Return the recorded recombinant UMI read abundance (log10) value; entry: CTAGAAACATGGACCGGTTTTCCCGGTAATCCGTATTTGCA (site CTAGAAACTTG) 2.59

Write down recombinant UMI read abundance (log10) measured for item CGGAATGCATGGACCGGTTTTCCCGGTAATCCGTATTTGTT (site CGGAATGCTAA) 2.84

Tell us which recombinant UMI read abundance (log10) value is on record for GGCAATCCATGGACCGGTTTTCCCGGTAATCCGTATTTGAA (site GGCATTCCTTT) 0.0126

Return the recorded recombinant UMI read abundance (log10) value; entry: TAGCCTTCATGGACCGGTTTTCCCGGTAATCCGTATTTGGA (site TAGCCTTCTGC) 0

Give recorded recombinant UMI read abundance (log10). AATGTAACATGGACCGGTTTTCCCGGTAATCCGTATTTGCT (site AATCTAACTAG) 0.276

Complete the entry with recombinant UMI read abundance (log10) for ATTAGTGCATGGACCGGTTTTCCCGGTAATCCGTATTTGGT (site ATTAGTGCTAC) 1.05

Provide only the value of recorded recombinant UMI read abundance (log10) for ACAATCGCATGGACCGGTTTTCCCGGTAATCCGTATTTGAA (site ACAATCGCTTT) 2.55

Find the measured recombinant UMI read abundance (log10) of ACTTATGCATGGACCGGTTTTCCCGGTAATCCGTATTTGGA (site ATTTATGCTTC) and report it. 0.623

Look up recombinant UMI read abundance (log10) of GGCCTCCCATGGACCGGTTTTCCCGGTAATCCGTATTTGTT (site GGCCACCCTAA) and report it. 0.0137

Give reported recombinant UMI read abundance (log10) value for ACATACTCATGGACCGGTTTTCCCGGTAATCCGTATTTGCA (site CCATACTCTTG) 2.69

Note recombinant UMI read abundance (log10) for the sequence shown: TGCCTCTCATGGACCGGTTTTCCCGGTAATCCGTATTTGCG (site TGCCTCTCTCG) 0.00512

For GTGAAAACATGGACCGGTTTTCCCGGTAATCCGTATTTGCT (site GGGAAAACTAG) , write its recombinant UMI read abundance (log10). 0

Retrieve recombinant UMI read abundance (log10) measured for GTTCGAGCATGGACCGGTTTTCCCGGTAATCCGTATTTGCA (site TTTCGAGCTTG) and print it. 0.829

Give reported recombinant UMI read abundance (log10) value for GATTCACCATGGACCGGTTTTCCCGGTAATCCGTATTTGTT (site GATTCACCTAA) 0.0124

Note recombinant UMI read abundance (log10) for the sequence shown: ACAGTATCATGGACCGGTTTTCCCGGTAATCCGTATTTGCA (site ACAGTGTCTGG) 0

Attribution: the supplement of paper PMC11208160
